Recorded measurements of PBM binding z-score, one per entry
test system: PPARg DBDmut:RXRa IVT, anti-PPARg (DBD mutation: PPARg1 K132A/R137A, NR concentration 270 nM, RXRa partner concentration 90 nM); test: PBM binding z-score (relative to random genomic background probes); higher = stronger binding; sequences stand for … in GC…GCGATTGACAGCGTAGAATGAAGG

{"columns": ["sequenceRecord", "PBM binding z-score"],
 "data": [
  ["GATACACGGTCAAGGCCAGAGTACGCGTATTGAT", -0.0876],
  ["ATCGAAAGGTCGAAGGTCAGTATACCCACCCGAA", 0.938],
  ["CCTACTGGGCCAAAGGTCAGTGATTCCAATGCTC", 0.904],
  ["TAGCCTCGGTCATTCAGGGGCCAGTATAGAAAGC", 0.246],
  ["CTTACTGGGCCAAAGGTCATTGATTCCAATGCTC", 2.55],
  ["TCTCGGAGGACACGAAAGGTCTGAGCTCGACATC", -0.378]
]}

Source listed as the supplement of paper PMC6555819.
